Tested on: SK-MEL-2 melanoma
Assay: NCI-60 one-dose screen, 48 h (100 = growth as untreated, 0 = no growth, -100 = all killed)
Conditions: 10 µM unless noted
The panel holds about 83,000 compounds, 20% with a hit somewhere; the sample as a whole holds those more often.
Classify as follows. Reported growth greater than or equal to 90%: fulfilled. Reported growth below: not fulfilled.

Solved entries:
[[record]]
compound = "COc1cc(C2CC(c3ccc(Nc4nc(Nc5ccc(F)cc5)nc(Nc5ccc(Cl)cc5)n4)cc3)=NN2C(C)=O)cc(OC)c1OC (stereo not given)"
label_value = "not fulfilled"

[[record]]
compound = "COc1ccc(Oc2nc(Nc3ccc(N4CCOCC4)nc3)ncc2NC(=O)c2cc(OC)cc(OC)c2)cc1"
label_value = "not fulfilled"

[[record]]
compound = "Cc1[nH]c(-c2nc3ccccc3[nH]2)c(C)c1C(=O)N1CCc2sccc2C1"
label_value = "fulfilled"

[[record]]
compound = "O=C1NC(=S)S/C1=C\\N1N=C(c2ccc(Cl)cc2)CC1c1ccc(F)cc1 (stereo not given)"
label_value = "fulfilled"

[[record]]
compound = "CSc1nc2sc3cc(Cl)ccc3n2c(=N)c1C#N"
label_value = "not fulfilled"

[[record]]
compound = "N=C(N)c1ccc(-c2ccc(-c3ccc(Cl)cc3Cl)o2)nc1"
label_value = "fulfilled"

[[record]]
compound = "Cc1cc(Cl)nc(N(CCCNc2ccnc3cc(Cl)ccc23)Cc2ccccn2)n1"
label_value = "not fulfilled"

[[record]]
compound = "CC12CC(C#N)CCC1O2 (stereo not given)"
label_value = "fulfilled"

[[record]]
compound = "O=C(c1ccccc1)c1ccc(N2C(=O)C3C4c5ccccc5C(/C=C/C(=O)c5ccccn5)(c5ccccc54)C3C2=O)cc1 (stereo not given)"
label_value = "not fulfilled"


Please look at the following compound next.
(Q) Hello, I need to know if COc1ccc(NC(=O)c2cccc(-c3cc(=O)c4c(O)c(OC)c(OC)cc4o3)c2)cc1 has measured growth not below 90%. Thanks!
(A) not fulfilled

====

System: HCC-2998 colon
Experiment: NCI-60 one-dose screen, 48 h
Conditions: 10 µM unless noted
The panel holds about 83,000 compounds, 20% with a hit somewhere; the sample as a whole holds those more often. Active and inactive are the calls of the source. Rule for the calls: active = growth percent below 10; inactive = the rest.
The categories you may choose from are yes = active, no = inactive

(Q) What was the test verdict on COc1cc(-c2ccc(N=Nc3c(O)c(C(=O)Nc4ccccc4OC)cc4ccccc34)c(OC)c2)ccc1N=Nc1c(O)c(C(=O)Nc2ccccc2OC)cc2ccccc12 ?
(A) no

====

System: SF-539 CNS
Test: NCI-60 one-dose screen, 48 h (100 = growth as untreated, 0 = no growth, -100 = all killed)
Settings: 10 µM unless noted
Procedure: Cells are grown in 96 well plates and exposed to the test compound for 48 hours. Compounds are tested at a single concentration, which is 10^-5 M for most compounds. The reported endpoint is percent growth (GI% or GIPRCNT), where numbers from 0 - 100% represent growth inhibition, and numbers from -100% - 0 represent cell death. For example, a value of 40 represents 60% growth inhibition. A value of 0 means no net growth occurred over the course of the experiment. […]
Compounds without any hit were thinned out: in the full panel of roughly 83,000, 20% have a hit.
QUANTITY KIND: growth (%)
Provide only the numeric value, understood in %.

[[record]]
compound = "C=C(C)[C@@H]1CC[C@]2(CNCCO)CC[C@]3(C)[C@H](CC[C@@H]4[C@@]5(C)CCC(N)[C@@](C)(CO)[C@@H]5CC[C@]43C)[C@@H]12 (stereo partly drawn)"
reported = -80.5


(Q) Please state recorded growth (tested on SF-539 CNS) of C[C@H]1[C@H]2C3=CC[C@@H]4[C@@]5(C)C/C(=C/c6ccncc6)C(=O)C(C)(C)[C@@H]5CC[C@@]4(C)[C@]3(C)CC[C@@]2(C(=O)N2CCN(C)CC2)CC[C@@H]1C
(A) 83.2

(Q) What is its growth for SF-539 CNS? Entry: CNC=O
(A) 88.8

(Q) Record lookup: for SF-539 CNS, what growth belongs to COc1ccc(-c2nnc(SCC(=O)NC3=NN=C(c4ccccc4)CS3)o2)cc1 ?
(A) 101

(Q) Provide the documented growth with SF-539 CNS as the system for CC(C)(C)OC(=O)N1Cc2cc3ccccc3nc2C1CO (stereo not drawn)
(A) 95.7

(Q) Hi! What's the reported growth for CN1CCN(C2=C(Cl)C(=O)c3ccccc3C2=O)CC1 on SF-539 CNS?
(A) 105

(Q) Can you look up growth on SF-539 CNS for CN1CCN(C(=O)[C@@]2(C)CC[C@]3(C)CC[C@]4(C)C(=CC[C@@H]5[C@@]6(C)C/C(=C/c7ccncc7)C(=O)C(C)(C)[C@@H]6CC[C@]54C)[C@@H]3C2)CC1 ?
(A) 57.7

(Q) Quick check: growth on SF-539 CNS, item CCc1cc(Cc2cc(CC)cc(C(C)(C)C)c2O)c(O)c(C(C)(C)C)c1 ?
(A) 39.6
